pIC50 for assorted molecules
Target: full-length beta-Catenin (Uniprot ID P35222) (Homo sapiens)
Construct: 10 nM full-length beta-Catenin (Uniprot ID P35222)
Sequence (P35222 whole entry): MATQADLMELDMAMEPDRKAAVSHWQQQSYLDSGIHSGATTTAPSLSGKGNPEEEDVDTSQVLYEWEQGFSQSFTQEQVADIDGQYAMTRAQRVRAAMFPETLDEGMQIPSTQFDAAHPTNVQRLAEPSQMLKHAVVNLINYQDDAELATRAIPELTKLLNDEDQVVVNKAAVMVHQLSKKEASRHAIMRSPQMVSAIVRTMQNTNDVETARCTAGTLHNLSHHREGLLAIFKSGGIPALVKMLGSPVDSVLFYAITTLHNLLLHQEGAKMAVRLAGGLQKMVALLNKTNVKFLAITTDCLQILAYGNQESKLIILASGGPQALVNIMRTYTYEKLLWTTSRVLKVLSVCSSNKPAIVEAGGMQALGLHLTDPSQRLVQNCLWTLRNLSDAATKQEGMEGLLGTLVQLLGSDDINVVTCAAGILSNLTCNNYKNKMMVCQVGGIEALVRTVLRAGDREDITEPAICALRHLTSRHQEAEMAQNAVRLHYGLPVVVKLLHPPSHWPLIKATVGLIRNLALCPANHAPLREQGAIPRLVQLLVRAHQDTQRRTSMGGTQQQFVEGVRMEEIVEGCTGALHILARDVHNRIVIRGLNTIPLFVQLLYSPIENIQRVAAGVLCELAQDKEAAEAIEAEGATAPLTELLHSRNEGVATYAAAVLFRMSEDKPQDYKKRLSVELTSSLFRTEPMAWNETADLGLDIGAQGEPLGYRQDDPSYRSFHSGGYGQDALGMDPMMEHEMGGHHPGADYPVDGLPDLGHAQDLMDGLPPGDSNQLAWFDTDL
Assay: Fluorescence polarization IC50 (beta-catenin / 5FAM-TCF4 10-53 competition)
Type: binding
Settings: fluorescence polarization; read-out: beta-Catenin FP IC50
In simple prose, pIC50 is minus the logarithm base ten of a concentration in moles per litre.

Before answering, review these 3 worked examples.
CC(=O)N1CCC[C@]12CC=CCCCC1(CCCC=CCCCCCC[C@@](C)(C(=O)N[C@@H](Cc3ccccc3)C(=O)N[C@@H](Cc3csc4ccccc34)C(=O)N[C@@H](Cc3c[nH]cn3)C(N)=O)NC(=O)[C@H]([C@@H](C)O)NC(=O)[C@H](Cc3ccccc3)NC(=O)[C@H](C)NC(=O)[C@H](C)NC(=O)[C@H](CCC(=O)O)NC(=O)[C@H](CC(=O)O)NC1=O)NC(=O)[C@H](C)NC(=O)[C@H](CC(=O)O)NC2=O (stereo partly drawn) ... 6.89
CC(=O)N1CCC[C@]12CC=CCCCC1(CCCC=CCCCOC(=O)N3CC[C@@](C(=O)N[C@@H](Cc4ccccc4Cl)C(=O)N[C@@H](Cc4csc5ccccc45)C(=O)N[C@@H](CO)C(N)=O)(C3)NC(=O)[C@H]([C@@H](C)O)NC(=O)[C@H](Cc3ccccc3)NC(=O)[C@H](CC(C)C)NC(=O)[C@H](C)NC(=O)[C@H](CC(=O)O)NC(=O)[C@H](CC(=O)O)NC1=O)NC(=O)[C@H](Cc1ccccc1)NC(=O)[C@H](CC(=O)O)NC2=O (stereo partly drawn) ... 7.44
CC(=O)N1CCC[C@]12CC=CCCCC1(CCCC=CCCCOC(=O)N3CC[C@@](C(=O)N[C@@H](Cc4ccsc4)C(=O)N[C@@H](Cc4csc5ccccc45)C(=O)N[C@@H](Cc4ccccc4)C(N)=O)(C3)NC(=O)[C@H](CC(C)C)NC(=O)[C@H](Cc3ccccc3)NC(=O)[C@H](C)NC(=O)[C@H](C)NC(=O)[C@H](CN(CC(=O)O)CC(F)(F)F)NC(=O)[C@H](CC(=O)O)NC1=O)NC(=O)[C@H](CC(C)(C)C)NC(=O)[C@H](CC(=O)O)NC2=O (stereo partly drawn) [I-1749] ... 6.84

Data request: Recorded pIC50 of CC(=O)N1CCC[C@]12CC=CCCCC1(CCCC=CCCCCCC[C@@](C)(C(=O)N[C@@H](Cc3ccccc3)C(=O)N[C@@H](Cc3csc4ccccc34)C(=O)N[C@@H](CCC(N)=O)C(N)=O)NC(=O)[C@H](CC(N)=O)NC(=O)[C@H](Cc3cccs3)NC(=O)[C@H](C)NC(=O)[C@H](C)NC(=O)[C@H](CCC(=O)O)NC(=O)[C@H](CC(=O)O)NC1=O)NC(=O)[C@H](C)NC(=O)[C@H](CC(=O)O)NC2=O (stereo partly drawn) [I-446] , please.
Data returned: 6.89

Data request: Could you share which pIC50 value was measured for CC(=O)N1CCC[C@]12CC=CCCCC1(CCCC=CCCCOC(=O)N3CC[C@@](C(=O)N[C@@H](Cc4ccsc4)C(=O)N[C@@H](Cc4csc5ccccc45)C(=O)N[C@@H](CCC(N)=O)C(N)=O)(C3)NC(=O)[C@H](CC(C)C)NC(=O)[C@H](Cc3ccccc3)NC(=O)[C@H](C)NC(=O)[C@H](C)NC(=O)[C@H](CN(CC(=O)O)C(=O)Cc3c(F)c(F)c(F)c(F)c3F)NC(=O)[C@H](CC(=O)O)NC1=O)NC(=O)[C@H](CC(C)(C)C)NC(=O)[C@H](CC(=O)O)NC2=O (stereo partly drawn) ?
Data returned: 7.74

Data request: If you can, please state the reported pIC50 value of CC(=O)N1CCC[C@]12CC=CCCCC1(CCCC=CCCCOC(=O)N3CC[C@@](C(=O)N[C@@H](Cc4ccsc4)C(=O)N[C@@H](Cc4csc5ccccc45)C(=O)N[C@@H](CCC(N)=O)C(N)=O)(C3)NC(=O)[C@H](CC(C)C)NC(=O)[C@H](Cn3cc(CN4CCS(=O)(=O)CC4)nn3)NC(=O)[C@H](C)NC(=O)[C@H](C)NC(=O)[C@H](CN(CC(=O)O)CC(F)(F)F)NC(=O)[C@H](CC(=O)O)NC1=O)NC(=O)[C@H](CC(C)(C)C)NC(=O)[C@H](CC(=O)O)NC2=O (stereo partly drawn) .
Data returned: 6.29

Data request: I'd like to know its pIC50. The molecule in question is CC(=O)N1CCC[C@]12CC=CCCCC1(CCCC=CCCCCCC[C@@](C)(C(=O)N[C@@H](Cc3ccccc3)C(=O)N[C@@H](Cc3csc4ccccc34)C(=O)N[C@@H](CCO)C(N)=O)NC(=O)[C@H](CCC(N)=O)NC(=O)[C@H](Cc3ccccc3)NC(=O)[C@H](C)NC(=O)[C@H](C)NC(=O)[C@H](CCC(=O)O)NC(=O)[C@H](CC(=O)O)NC1=O)NC(=O)[C@H](C)NC(=O)[C@H](CC(=O)O)NC2=O (stereo partly drawn) [I-491]
Data returned: 6.82

Data request: Find the recorded pIC50 belonging to CC(=O)N1CCC[C@]12CC=CCCCC1(CCCC=CCCCOC(=O)N3CC[C@@](C(=O)N[C@@H](Cc4ccccc4Cl)C(=O)N[C@@H](Cc4csc5ccccc45)C(=O)N[C@@H](CCC(N)=O)C(N)=O)(C3)NC(=O)[C@H](CC(N)=O)NC(=O)[C@H](Cc3ccccc3)NC(=O)[C@H](C)NC(=O)[C@H](C)NC(=O)[C@H](CN(CC(=O)O)C(C)C)NC(=O)[C@H](CC(=O)O)NC1=O)NC(=O)[C@H](CC(C)(C)C)NC(=O)[C@H](CC(=O)O)NC2=O (stereo partly drawn) and report it.
Data returned: 7.89

Data request: For the molecule shown here, CO[C@H](C)[C@@H]1NC(=O)[C@H](CC(=O)O)NC(=O)[C@]2(CC=CCCCC3(CCCC=CCCCCCC[C@@](C)(C(=O)N[C@@H](Cc4ccccc4)C(=O)N[C@@H](Cc4csc5ccccc45)C(=O)N[C@@H](CCC(N)=O)C(N)=O)NC(=O)[C@H](CCC(N)=O)NC(=O)[C@H](Cc4ccccc4)NC(=O)[C@H](C)NC(=O)[C@H](C)NC(=O)[C@H](CCC(=O)O)NC(=O)[C@H](CC(=O)O)NC3=O)NC1=O)CCCN2C(C)=O (stereo partly drawn) [I-542] , give the reported pIC50.
Data returned: 6.96
